Tested on: Mus musculus
Experiment: Ratio of the survival time of treated to control animals at dose 5 mg/kg
Assay type: functional
Quick reference for T/C among some molecules
Answer using only a numeral; do not append any unit.

O=C1C=CC(=O)c2cc(CCl)ccc21; 1.38
O=C1C=CC(=O)c2cc(CBr)ccc21; 1.46
CC1=CC(=O)c2ccccc2C1=O; 0.85
CS(=O)(=O)OCC1=CC(=O)c2ccccc2C1=O; 1.92
CNC(=O)OCc1ccc2c(c1)C(=O)C=CC2=O; 1.71

Form: molecule = CS(=O)(=O)OCc1ccc2c(c1)C(=O)C=CC2=O ; T/C = 1.71

Looking up O=C1C=C(CCl)C(=O)c2ccccc21 , I found its T/C recorded as 1.4

For reference, reported T/C for CC(=O)OCc1ccc2c(c1)C(=O)C=CC2=O stands at 1.35

For this molecule ( Cc1ccc(S(=O)(=O)OCC2=CC(=O)c3ccccc3C2=O)cc1 ), measured T/C is 1.77

---

Tested on: Mus musculus
Experiment: Ratio of the survival time of treated to control animals at dose 5 mg/kg
Format: functional
Rule: T/C below 2 gives satisfied. Equal to or above 2 gives not satisfied.

As a guide, the following entries are already answered.
O=C(NCCCl)OCC1=CC(=O)c2ccccc2C1=O; not satisfied
CCOCc1ccc2c(c1)C(=O)C=CC2=O; satisfied
CC(=O)OCC1=CC(=O)c2ccccc2C1=O; satisfied
COCC1=CC(=O)c2ccccc2C1=O; satisfied

# input for lookup
Inquiry: Below 2 on T/C? Entry O=C1C=C(CBr)C(=O)c2ccccc21
Reply text: satisfied
